Value source: PubChem BioAssay AID449762

Test: M. tuberculosis growth inhibition, HTS (AID 449762);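 note: bacterial growth assessed after seven days of incubation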
Conditions: M. tuberculosis H37Rv growth inhibition, 7H9 media; at 25 µM; hits give high values
In all, about 330,000 compounds went through this assay and about 1,900 (0.58%) were called active. Another 4% or so got no clear call; they are omitted. Only a sample is shown. Entries with a potency or affinity are not part of this list.
test.readout: inhibition (%)

1. CCOc1ccc(CNc2ccc3c(c2)ncn3C(C)(C)C)cc1: -2.96
2. Cc1ccc(OC(=O)CN2C(=O)c3ccccc3C2=O)cc1C: -4.28
3. COc1ccc(C2SCC(=O)N2c2ccc(C)cc2)cc1 (configuration not stated): -1.14
4. O=[N+]([O-])c1c(C(Cl)Cl)nn(-c2ccccc2)c1N1CCOCC1: 5.81
5. CN(C)c1cccc2c1c(NC(=O)c1ccc(F)cc1)nn2C: -5.17
6. c1cc[n+](CCCC[n+]2ccccc2)cc1: -7
7. O=[N+]([O-])c1c(C(Cl)Cl)nn(-c2ccccc2)c1N1CCCC1: -9.83
8. COc1cccc(NC(=O)CSc2nc3ccccc3c(=O)n2CCCC(=O)NCCCN2CCOCC2)c1: -10.7
9. CCOC(=O)C1=C(C)C(c2cccc(Oc3ccccc3)c2)NC(=S)N1 (configuration not stated): 10.7
10. Cc1cc(C)n(-c2ccccc2[N+](=O)[O-])n1: -3.52
11. Cc1ccc(S(=O)(=O)N2CCN(C(=O)Cn3c(=O)oc4ccccc43)CC2)cc1: 8.54
12. COc1ccccc1C1CC(c2ccc(Cl)cc2Cl)Nc2nc(N)nn21 (configuration not stated): -6.06
13. CC[N+](C)(C)CC/C=C1/c2ccccc2Sc2ccc(Cl)cc21: -9.06
14. CCOC(=O)[C@H]1NN=C(C(=O)OC)[C@@H]1c1ccccc1: -5.97
15. COc1ccc([N+](=O)[O-])cc1NS(=O)(=O)c1cccc(C(=O)OC2CCOC2=O)c1 (configuration not stated): -6.35
16. COc1ccc2c(c1)CCc1c(C(=O)Nc3c(C)nn(Cc4ccccc4)c3C)noc1-2: 0.29
17. CC(=O)C[C@H](O)CC(=O)[C@H]1OC(=O)[C@H](C)CCCCc2ccccc21: -1.44
18. c1ccc(-c2cn3c(n2)SCC3)cc1: -1.11
19. COc1cccc(NC(=O)COC(=O)c2ccccc2SCC(=O)N2CCCC2)c1: 5.04
20. COc1cccc(/C=N/NC(=O)CCCC(=O)Nc2ccc(Br)cc2)c1: -7.05
21. COc1ccc(/C=C2\CCCC3C2=NN(C(=O)CSc2ncn[nH]2)C3c2ccc(OC)cc2)cc1 (configuration not stated): 8.82
22. Oc1ccc(-c2cn3c(n2)SCC3)cc1: -2.38
23. Cc1ccc2nc(N3C(=O)C(O)=C(C(=O)c4ccco4)C3c3cccs3)sc2c1 (configuration not stated): -7.92
24. Cc1ccc2nc(SCC(=O)NCC3CCCO3)c(C#N)cc2c1 (configuration not stated): 9.97
25. Cc1nc(SCc2c(F)cccc2Cl)n[nH]1: -11.2
26. COC(=O)c1cc(NC(=O)CN(C)C2CCS(=O)(=O)C2)cc(C(=O)OC)c1 (configuration not stated): -0.88
27. CN=c1scc(-c2ccccc2F)n1/N=C/c1ccc[nH]1: 67.8
28. CCOC(=O)C1(CCOc2ccccc2)CCN(Cc2cccc(OC)c2)CC1: 8.09
29. N#Cc1c(-c2ccccc2)c(-c2ccccc2)nn(CC(=O)NNC(=O)Nc2ccc(Cl)cc2)c1=O: 3.84
30. COc1ccc(OC)c(S(=O)(=O)Nc2cc(Cl)cc(Cl)c2)c1: -2.29
31. Cc1cc(C)cc(OC(=O)CCN2C(=O)c3ccccc3C2=O)c1: -5.68
32. C[C@H]1CN([C@@H](C)CO)C(=O)Cc2cc(NS(C)(=O)=O)ccc2O[C@@H]1CN(C)Cc1ccc(Cl)c(Cl)c1: 4.73
33. CN(C)CC/C=C1/c2ccccc2Sc2ccc(Cl)cc21: 39
34. O=[N+]([O-])c1ccccc1/C=N/Nc1nc(N2CCCC2)nc(N2CCCC2)n1: 2.55
35. COc1cc(NC(=S)NCCc2ccccc2)c(OC)cc1NC(=O)CC(C)C: -2.92
36. CC(C)c1nc(NCCO)c2nnn(Cc3ccccc3)c2n1: -8.58
37. CN(C)c1ccc(CNc2ccc3c(c2)ncn3C(C)(C)C)cc1: 8.27
